# assay target: YWHAQ (UniProt P27348)
# Sequence (P27348 whole entry, looked up): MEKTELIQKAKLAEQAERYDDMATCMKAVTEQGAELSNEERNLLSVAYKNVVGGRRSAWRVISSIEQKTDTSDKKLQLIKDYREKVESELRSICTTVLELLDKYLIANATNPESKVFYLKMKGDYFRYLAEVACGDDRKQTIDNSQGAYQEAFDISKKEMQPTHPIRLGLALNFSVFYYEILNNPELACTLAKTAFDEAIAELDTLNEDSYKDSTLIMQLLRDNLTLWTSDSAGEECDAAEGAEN
# experiment: log2 fold change, soluble protein after heating vs DMSO (PISA); higher = thermal stabilisation; K562 cells, 10 uM, 30 min; active = over 0.2 and 3.5 SD of the protein, either way, in both replicates (recomputed)
About 7,900 targets were measured; listed, in parts, are those with a hit and a random draw of the rest. About 0.6% of all pairs of compound and target were hits.
Classes used: active, inactive

> print(dat)
                                    compound     group
 1  CC[C@@H]1C(=O)N(C)c2cnc(Nc3ccc(C(=O)NC4CCN(C)CC4)cc3OC)nc2N1C1CCCC1  inactive
 2   CN(C)CC(=O)Nc1ccc2[nH]c(=O)c3ccccc3c2c1  inactive
 3  CN1CCC(CNc2ccc3ncc(-c4cccc(OC(F)(F)F)c4)n3n2)CC1  inactive
 4         Cc1ccc(Sc2cncc3sc(C(N)=O)cc23)cc1  inactive
 5  Cc1nc(Nc2ncc(C(=O)Nc3c(C)cccc3Cl)s2)cc(N2CCN(CCO)CC2)n1 [dasatinib]  inactive
 6  C[C@H](Nc1ncnc2nc[nH]c12)c1cc2cccc(Cl)c2c(=O)n1-c1ccccc1 [duvelisib]  inactive
 7  c1cn2cc(-c3ccc4cn[nH]c4c3)nc(Nc3ccc(N4CCOCC4)cc3)c2n1 [entospletinib]  inactive
 8  Cc1cccc(-c2[nH]c(C(C)(C)C)nc2-c2ccc3nccnc3c2)n1  inactive
 9  NC(=O)c1ccc2nc(-c3ccc(Oc4ccc(Cl)cc4)cc3)[nH]c2c1  inactive
10  Cc1ccc(NC(=O)c2cccc(N(C)C)c2)cc1NC(=O)c1ccc(O)cc1  inactive
11  CCCCN(Cc1ccc(C(=O)NO)cc1)C(=O)Nc1ccccc1 [Nexturastat A]  inactive
12  CC(C)(O)CC(=O)NCCn1ccc2ncnc(Nc3ccc(Oc4cccc(C(F)(F)F)c4)c(Cl)c3)c21  inactive
13  COc1cc2ncnc(Nc3ccc(F)c(Cl)c3)c2cc1OCCCN1CCOCC1 [gefitinib]  inactive
14  Nc1ccccc1NC(=O)c1ccc(CNC(=O)OCc2cccnc2)cc1 [entinostat]  inactive
15          Cc1ccc2c(=O)c3ccccc3n(CCCN)c2c1C  inactive
16  Cn1c2cc(S(C)=O)sc2c2cnn(Cc3cccc(N)c3)c(=O)c21 (stereo unspecified)  inactive
17  Cc1ccc(-n2nc(C(C)(C)C)cc2NC(=O)Nc2ccc(OCCN3CCOCC3)c3ccccc23)cc1 [doramapimod]  inactive
18  NC1(Cc2ccc(Cl)cc2)CCN(c2ncnc3[nH]ccc23)CC1  inactive
19  NC1(c2ccc(-c3nc4ccn5c(=O)[nH]nc5c4cc3-c3ccccc3)cc2)CCC1  inactive
20  CC[C@H](C)n1cc(C)c2c(C(=O)NCc3c(C)cc(C)[nH]c3=O)cc(-c3ccc(N4CCNCC4)nc3)cc21  inactive
21  CN1CCN(c2nc(C3=C(c4c[nH]c5ccccc45)C(=O)NC3=O)c3ccccc3n2)CC1 [sotrastaurin]  inactive
22  FC(F)(F)c1ccc(/C=C/c2nc(COc3ccc(CCCCn4ccnn4)cc3)co2)cc1 [mubritinib]  inactive
23  CON(C)C(=O)N1N=C(c2cc(F)ccc2F)S[C@@]1(CCCN)c1ccccc1 [filanesib]  inactive
24            O=C1c2ccccc2-c2n[nH]c3cccc1c23  inactive
25  C[C@@H](N)c1ccc(C(=O)Nc2ccnc3[nH]ccc23)cc1  inactive
26  CCn1cc(-c2ccnc3[nH]c(-c4cccc(CN(C)C)c4)cc23)c(-c2ccc(NC(=O)N(C)C)cc2)n1  inactive
27  O=C(CCCCCCNC(=O)c1cnc(N(c2ccccc2)c2ccccc2Cl)nc1)NO [citarinostat]  inactive
28  Cc1cccc(CC(=O)N2CCc3c2ccc(-c2cn(C)c4ncnc(N)c24)c3F)n1    active
29  Cc1cc(Nc2cc(CN3CCOCC3)c3nc(C)c(Cc4ccc(Cl)cc4F)n3n2)n[nH]1 [gandotinib]  inactive
30  CN1CCc2c(c3ccccc3n2Cc2ccc(C(=O)NO)cc2)C1 [Tubastatin A]  inactive
31  CS(=O)(=O)c1ccc(-c2cnc(N)c(C(=O)Nc3ccccc3)n2)cc1  inactive
